The reader will find reported melting point values listed item by item below.

CC1(C)CC(=O)c2ccc(CCc3ccccc3)nc2C1.Cl :: 173 to 175 °C
O=C1c2ccc(Nc3ccccc3)nc2CC2CCCCC12 (centres unmarked) :: 214 to 216 °C
CCCSc1nc2c(cc1C#N)C(=O)CC(C)(C)C2 :: 100 to 102 °C
C=C(C)CSc1nc2c(cc1C#N)C(=O)CCC2 :: 85 to 86 °C

Now look at this entry.
# lookup: melting point of O=C1c2ccc(N3CCN(c4ccccc4)CC3)nc2CC2CCCCC12 (centres unmarked) 164 to 166 °C

* * *

# melting point values compiled below
Structures can show the parent of a compound that is named as a salt.

CC1(C)CC(=O)c2ccc(Cc3ccccc3)nc2C1.Cl :: 202 to 204 °C

Record request: melting point value, item CC(C)CSc1nc2c(cc1C#N)C(=O)CC(C)(C)C2 75 to 76 °C

What value of melting point has been reported for the following compound? COc1ccc(Nc2ccc3c(n2)CC(C)(C)CC3=O)cc1 149 to 150 °C

What value of melting point has been reported for the following compound? O=C1CC2(CCCCC2)Cc2nc(C34CC5CC(CC(C5)C3)C4)ccc21 (as salt: hydrochloride) 221 to 222 °C
